biological target: HLA-A2 molecule (Homo sapiens, UniProt P04439, D140Y/D185E/D98H/E176V/E277Q/G131W/G231S/I119V/I121R/I166T/I218V/L300P/L318F/N151K/N90K/P208A/P217A/Q86G/Q94H/R138H/R169H/T345S); construct: The T2 cell line (HLA-A2) was supplied by Professor Yuzhang Wu; endogenous in cells; host or cells: T2 cell line (HLA-A2); exogenous human β2-microglobulin from Merck; test: T2 binding assay (fluorescence index, FI); details: T2 cells, peptide 50 μg/mL, human β2-microglobulin 3 µg/mL, 37°C 18 h, anti-HLA-A2 BB7.2 PE-cy7, flow cytometry; class by FI
experimental-endpoint: Binding

SIDDLSFYV [CT-X candidate nonamer predicted by POTN, synthesized]
++ (FI ≥ 1.5)
ALSTVLPGL [CT-X candidate nonamer predicted by POTN, synthesized]
++ (FI ≥ 1.5)
KVAELVHFL [CT-X candidate nonamer predicted by POTN, synthesized]
+ (FI ≥ 0.5 to < 1.5)
ALDEKVAEL [CT-X candidate nonamer predicted by POTN, synthesized]
++ (FI ≥ 1.5)
ALSVMGVYV [CT-X candidate nonamer predicted by POTN, synthesized]
+ (FI ≥ 0.5 to < 1.5)
KLSSIIPSA [CT-X candidate nonamer predicted by POTN, synthesized]
++ (FI ≥ 1.5)
VLSAVTPEL [CT-X candidate nonamer predicted by POTN, synthesized]
+ (FI ≥ 0.5 to < 1.5)
FLAKLNNTV [CT-X candidate nonamer predicted by POTN, synthesized; also in training set]
+ (FI ≥ 0.5 to < 1.5)

Problem: Bench note: what Binding did KVAKLVHFL [CT-X candidate nonamer predicted by POTN, synthesized] show?
Result: + (FI ≥ 0.5 to < 1.5)

Problem: Same question, VLSNVLSGL [CT-X candidate nonamer predicted by POTN, synthesized] this time
Result: + (FI ≥ 0.5 to < 1.5)

Problem: Same question, VLSTAPPQL [CT-X candidate nonamer predicted by POTN, synthesized] this time
Result: ++ (FI ≥ 1.5)

Problem: Same question, ILDRANQSV [CT-X candidate nonamer predicted by POTN, synthesized] this time
Result: ++ (FI ≥ 1.5)

Problem: Same question, TLDEKVAEL [CT-X candidate nonamer predicted by POTN, synthesized] this time
Result: ++ (FI ≥ 1.5)
